Biological target: protein kinase B (UniProt P31749)
Sequence (P31749 whole entry): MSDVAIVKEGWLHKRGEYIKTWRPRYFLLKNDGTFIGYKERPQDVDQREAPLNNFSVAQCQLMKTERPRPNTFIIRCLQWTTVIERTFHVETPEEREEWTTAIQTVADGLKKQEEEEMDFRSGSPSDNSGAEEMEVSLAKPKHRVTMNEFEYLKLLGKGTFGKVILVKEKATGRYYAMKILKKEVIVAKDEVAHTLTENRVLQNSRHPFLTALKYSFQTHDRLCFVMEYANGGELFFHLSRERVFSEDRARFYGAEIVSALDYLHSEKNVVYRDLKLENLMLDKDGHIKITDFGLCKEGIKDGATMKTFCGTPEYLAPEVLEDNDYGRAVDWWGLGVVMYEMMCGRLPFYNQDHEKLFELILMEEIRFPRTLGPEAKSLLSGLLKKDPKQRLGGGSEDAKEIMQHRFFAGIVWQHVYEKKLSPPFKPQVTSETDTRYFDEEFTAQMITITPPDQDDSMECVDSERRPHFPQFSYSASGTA
Assay: cell-based or functional assay
Where no end group is shown, it is not given here. [ ]: non-standard residue; d: D form. hLeu = CC(C)CC[C@H](N)C(=O)O; Nva = CCC[C@H](N)C(=O)O; Abu = CC[C@H](N)C(=O)O; Dap = NC[C@H](N)C(=O)O; GlyNH2 = aminoglycine
readout_type: % Inhibition PKB I (%)
Give the value in % but do not write % after it.

binder: RPRT[GlyNH2]A[hLeu] [60005-32]
endpoint_value: 43
--
binder: RPR[Nva]GA[hLeu] [60006-18A]
endpoint_value: 47

// lookup % Inhibition PKB I for RPRT[Abu][Dap]F [60002-88]
40

Same again, this time with RPR[Nva]S[GlyNH2][hLeu] [60005-75]
70

Same again, this time with RPR[Nva]SAF [60002-38]
43

Same again, this time with RPR[Nva]TA[hLeu] [60005-84]
39
